Target: PI3K delta (Homo sapiens, UniProt O00329)
Construct: for the full-length p110-d subunit are generated and fused by overlapping PCR; p85(iSH2) fusion partner (see partner chain) (N); His tag (C); Tn5 (Trichoplusia ni) or TiniPro insect cells
Sequence (O00329 with tags, fused parts or gaps limits assumed): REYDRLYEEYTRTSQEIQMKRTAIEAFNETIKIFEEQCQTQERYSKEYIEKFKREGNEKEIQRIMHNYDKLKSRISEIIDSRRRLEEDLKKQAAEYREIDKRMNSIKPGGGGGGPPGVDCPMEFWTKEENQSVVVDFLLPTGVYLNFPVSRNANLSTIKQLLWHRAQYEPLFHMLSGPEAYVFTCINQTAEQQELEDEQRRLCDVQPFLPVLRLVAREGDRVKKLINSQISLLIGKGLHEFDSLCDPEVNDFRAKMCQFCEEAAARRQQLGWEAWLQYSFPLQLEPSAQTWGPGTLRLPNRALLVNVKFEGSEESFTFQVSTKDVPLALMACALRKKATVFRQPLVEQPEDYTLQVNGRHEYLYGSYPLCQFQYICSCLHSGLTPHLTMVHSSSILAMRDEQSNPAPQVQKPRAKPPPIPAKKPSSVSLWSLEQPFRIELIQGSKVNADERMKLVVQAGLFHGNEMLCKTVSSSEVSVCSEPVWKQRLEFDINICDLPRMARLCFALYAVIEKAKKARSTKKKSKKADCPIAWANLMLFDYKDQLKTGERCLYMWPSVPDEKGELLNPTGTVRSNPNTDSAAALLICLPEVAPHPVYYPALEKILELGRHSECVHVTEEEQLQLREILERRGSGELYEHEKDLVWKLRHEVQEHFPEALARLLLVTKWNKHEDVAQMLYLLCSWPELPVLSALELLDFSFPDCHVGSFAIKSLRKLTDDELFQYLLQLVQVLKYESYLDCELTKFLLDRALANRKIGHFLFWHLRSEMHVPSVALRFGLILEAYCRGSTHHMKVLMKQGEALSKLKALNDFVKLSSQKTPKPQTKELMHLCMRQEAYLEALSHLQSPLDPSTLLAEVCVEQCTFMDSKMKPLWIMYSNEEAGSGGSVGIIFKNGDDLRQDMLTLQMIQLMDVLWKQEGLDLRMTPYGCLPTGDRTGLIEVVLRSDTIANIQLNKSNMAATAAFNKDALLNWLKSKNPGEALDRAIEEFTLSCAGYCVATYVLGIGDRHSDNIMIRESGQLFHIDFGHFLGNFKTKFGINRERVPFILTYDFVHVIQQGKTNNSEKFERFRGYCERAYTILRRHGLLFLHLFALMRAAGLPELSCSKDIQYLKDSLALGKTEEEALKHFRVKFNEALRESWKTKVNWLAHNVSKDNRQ
Experiment: PI3K delta kinase assay (Kinase-Glo luminescence)
Please go through the items and note down their pIC50.
// pIC50: -log10(molar conc.)

# input Which value of pIC50 has been reported for Cc1nn(C)cc1-n1c(=O)n(C)c2cnc3ccc(-c4ccc(OCCOCc5ccccc5)nc4)cc3c21 [Example 19] in the records?
# output 6.33

# input Can you handle Cc1noc(C)c1-n1c(=O)n(C)c2cnc3ccc(-c4cnc(N)c(Cl)c4)cc3c21 [Example 148.4] next?
# output 7.35

# input Can you handle COCc1ncc(-c2ccc3ncc4c(c3c2)n(-c2cn(C)nc2C)c(=O)n4C)cc1OC [Example 195.1] next?
# output 7.85

# input Can you handle Cc1nn(C)cc1-n1c(=O)n(C)c2cnc3ccc(-c4cnc5ccccc5c4)cc3c21 [Example 38] next?
# output 8.15

# input Can you handle CCN(C)c1ccc(-c2ccc3ncc4c(c3c2)n(-c2cn(CC)nc2C)c(=O)n4C)cn1 [Example 98.3] next?
# output 7.14

# input Can you handle Cc1nn(C(C)C)cc1-n1c(=O)n(C)c2cnc3ccc(-c4ccc(CO)nc4)cc3c21 [Example 16.3] next?
# output 7.57

# input Can you handle CCNC(=O)c1cc(-c2ccc3ncc4c(c3c2)n(-c2cn(C)nc2C)c(=O)n4C)cnc1NC [Example 242.1] next?
# output 8.00

# input Can you handle CCn1cc(-n2c(=O)n(C)c3cnc4ccc(-c5cnc(COC)c(OC(C)C)c5)cc4c32)c(C)n1 [Example 191.2] next?
# output 7.96

# input Can you handle CNc1cc(-c2ccc3ncc4c(c3c2)n(-c2cn(C(C)C)nc2C)c(=O)n4C)cnc1CO [Example 158.2] next?
# output 8.10

# input Can you handle Cc1nn(C)cc1-n1c(=O)n(C)c2cnc3ccc(-c4cncc(N(C)S(C)(=O)=O)c4)cc3c21 [Example 121] next?
# output 7.74

# input Can you handle COc1ccc(-c2ccc3ncc4c(c3c2)n(-c2cn(C)nc2C)c(=O)n4C)cn1 [Example 2.5] next?
# output 8.00

# input Can you handle CNc1ncc(-c2ccc3ncc4c(c3c2)n(-c2cn(C(C)C)nc2C)c(=O)n4C)cc1COC [Example 248.1] next?
# output 8.40

# input Can you handle CCOc1ccc(-c2ccc3ncc4c(c3c2)n(-c2cn(C)nc2Cl)c(=O)n4C)cn1 [Example 3.8] next?
# output 7.47

# input Can you handle Cc1nn(C)cc1-n1c(=O)n(C)c2cnc3ccc(-c4cncc(N5CCC5)c4)cc3c21 [Example 179] next?
# output 7.06

# input Can you handle COc1ccc(-c2ccc3ncc4c(c3c2)n(-c2ccnn2C)c(=O)n4C)cc1OC [Example 1.3] next?
# output 7.92

# input Can you handle CCn1c(=O)n(-c2cn(C)nc2C)c2c3nc(-c4ccc(OC)c(OC)c4)ccc3ncc21 [Example 251] next?
# output 6.77

# input Can you handle CCc1ncc(-c2ccc3ncc4c(c3c2)n(-c2cn(C)nc2C)c(=O)n4C)cc1O [Example 188] next?
# output 8.40

# input Can you handle Cc1nn(C)cc1-n1c(=O)n(C)c2cnc3ccc(-c4ccc(-n5cccn5)cc4)cc3c21 [Example 51.1] next?
# output 6.93

# input Can you handle Cn1nccc1-n1c(=O)n(C)c2cnc3ccc(-c4ccc(C(F)(F)F)nc4)cc3c21 [Example 8.1] next?
# output 6.78

# input Can you handle Cc1ncc(-c2ccc3ncc4c(c3c2)n(-c2cn(C)nc2C)c(=O)n4C)cc1N(C)S(C)(=O)=O [Example 75] next?
# output 8.15

# input Can you handle COc1ccc(-c2ccc3ncc4c(c3c2)n(-c2c(C)nn(C)c2C)c(=O)n4C)cn1 [Example 2.4] next?
# output 7.48

# input Can you handle CCn1c(=O)n(C)c2ncc(-c3ccc4ncc5c(c4c3)n(-c3cn(C)nc3C)c(=O)n5C)cc21 [Example 68] next?
# output 7.54

# input Can you handle COc1ncc(-c2ccc3ncc4c(c3c2)n(-c2cn(C)nc2C)c(=O)n4C)cc1C(=O)O [Example 124] next?
# output 7.70

# input Can you handle CCNc1ncc(-c2ccc3ncc4c(c3c2)n(-c2c(C)nn(C)c2C)c(=O)n4C)cc1C(F)(F)F [Example 145.1] next?
# output 7.74

# input Can you handle CNc1cncc(-c2ccc3ncc4c(c3c2)n(-c2cn(C(C)C)nc2C)c(=O)n4C)c1 [Example 180.2] next?
# output 8.22

# input Can you handle CCn1cc(-n2c(=O)n(C)c3cnc4ccc(-c5cncc(C(C)(C)C#N)c5)cc4c32)c(C)n1 [Example 220.2] next?
# output 8.15

# input Can you handle Cc1nn(C)c(C)c1-n1c(=O)n(C)c2cnc3ccc(-c4ccc(CO)nc4)cc3c21 [Example 16.4] next?
# output 6.79

# input Can you handle CCOCc1ncc(-c2ccc3ncc4c(c3c2)n(-c2cn(C)nc2C)c(=O)n4C)cc1OC [Example 196.2] next?
# output 6.80

# input Can you handle CNc1ncc(-c2ccc3ncc4c(c3c2)n(-c2cn(C(C)C)nc2C)c(=O)n4C)cc1F [Example 141.3] next?
# output 8.05

# input Can you handle Cc1nn(CC(=O)N(C)C)cc1-n1c(=O)n(C)c2cnc3ccc(-c4ccc(-n5cccn5)cc4)cc3c21 [Example 51.2] next?
# output 6.34

# input Can you handle Cc1nn(C)cc1-n1c(=O)n(C)c2cnc3ccc(-c4cncc(N(C)C(C)C)c4)cc3c21 [Example 173] next?
# output 7.43

---

Quick record of pIC50 values for mTOR (Homo sapiens).
// pIC50: -log10(molar conc.)

# input Which value of pIC50 has been reported for COCCOc1cc(-c2ccc3ncc4c(c3c2)n(-c2cn(C)nc2C)c(=O)n4C)cnc1CO in the records?
# output 7.10

# input Can you handle CCNC(=O)c1cc(-c2ccc3ncc4c(c3c2)n(-c2cn(C(C)C)nc2C)c(=O)n4C)cnc1N next?
# output 6.79

# input Can you handle Cn1nccc1-n1c(=O)n(C)c2cnc3ccc(-c4ccc(NCCO)nc4)cc3c21 next?
# output 6.70

# input Can you handle CNC(=O)c1cc(-c2ccc3ncc4c(c3c2)n(-c2cn(C)nc2C)c(=O)n4C)cnc1OC next?
# output 7.29

---

Experiment: Solubility at pH 6.8
Assay type: physicochemical
Conditions: pH 6.8, aqueous buffer, thermodynamic from solid; read-out: solubility
value type: solubility

# input Which value of solubility has been reported for Cc1cncc(-c2ccc3ncc4c(c3c2)n(-c2cn(C)nc2C)c(=O)n4C)c1 in the records?
# output 25 µg/mL

# input Can you handle COCCOc1ccc(-c2ccc3ncc4c(c3c2)n(-c2cn(C)nc2C)c(=O)n4C)cn1 next?
# output 240 µg/mL

# input Can you handle CCn1cc(-n2c(=O)n(C)c3cnc4ccc(-c5cnc(N(C)C)nc5)cc4c32)c(C)n1 next?
# output 36 µg/mL

# input Can you handle CCOc1cncc(-c2ccc3ncc4c(c3c2)n(-c2cn(C)nc2C)c(=O)n4C)c1 next?
# output 25 µg/mL

# input Can you handle CCNc1cc(-c2ccc3ncc4c(c3c2)n(-c2cn(C)nc2C)c(=O)n4C)cnc1CC next?
# output 433 µg/mL

# input Can you handle CCOc1cc(-c2ccc3ncc4c(c3c2)n(-c2cn(C)nc2C)c(=O)n4C)ccn1 next?
# output 13 µg/mL

# input Can you handle CCOc1cc(-c2ccc3ncc4c(c3c2)n(-c2cn(C)nc2C)c(=O)n4C)cnc1COC next?
# output 361 µg/mL

# input Can you handle Cc1nn(C)cc1-n1c(=O)n(C)c2cnc3ccc(-c4cncc(C5(C#N)CCC5)c4)cc3c21 next?
# output 21 µg/mL

# input Can you handle CCN(CC)C(=O)Cn1cc(-n2c(=O)n(C)c3cnc4ccc(-c5ccc(C)nc5)cc4c32)c(C)n1 next?
# output > 484 µg/mL

# input Can you handle Cn1nccc1-n1c(=O)n(C)c2cnc3ccc(-c4ccc(C(F)(F)F)nc4)cc3c21 next?
# output 18 µg/mL

---

Biological target: PI3K delta (Homo sapiens)
Construct: for the full-length p110-d subunit are generated and fused by overlapping PCR; p85(iSH2) fusion partner (see partner chain) (N); His tag (C); Tn5 (Trichoplusia ni) or TiniPro insect cells
Test: PI3K delta kinase assay (Kinase-Glo luminescence)
Experimental: In a more preferred assay, the kinase reaction is performed in a final volume of 10 μL per well of a low volume non binding CORNING, 384 well black plate (Cat. No. #3676). The final concentrations of ATP and phosphatidyl inositol (PI) in the assay are 1 μM and 10 μg/mL respectively. […] IC50 is determined by a four parameter curve fitting routine that comes along with “excel fit”. […] Alternatively, IC50 values are calculated using idbsXLfit model 204, which is a 4 parameter logistic model.
Please go through the items and note down their pIC50.
// pIC50: -log10(molar conc.)

# input Request: pIC50, test system PI3K delta (Homo sapiens), entry CNc1ncc(-c2ccc3ncc4c(c3c2)n(-c2cn(C(C)C)nc2C)c(=O)n4C)cc1C(F)(F)F
# output 8.40

# input Can you handle CCOc1ccc(-c2ccc3ncc4c(c3c2)n(-c2cn(CC)nc2C)c(=O)n4C)cn1 next?
# output 7.40

# input Can you handle CCOc1cncc(-c2ccc3ncc4c(c3c2)n(-c2cn(C)nc2Cl)c(=O)n4C)c1 next?
# output 8.22

# input Can you handle COc1ccc(-c2ccc3ncc4c(c3c2)n(-c2cc(C)nn2C)c(=O)n4C)cc1OC next?
# output 7.08

# input Can you handle COCc1ncc(-c2ccc3ncc4c(c3c2)n(-c2cn(C(C)C)nc2C)c(=O)n4C)cc1OC next?
# output 7.46

# input Can you handle CNC(=O)c1ccc(-c2ccc3ncc4c(c3c2)n(-c2cn(C)nc2C)c(=O)n4C)cc1 next?
# output 6.66

# input Can you handle COc1nc2cc(-c3ccc4ncc5c(c4c3)n(-c3cn(C)nc3C)c(=O)n5C)cnc2n1C next?
# output 6.58
